Tested on: TlLhpI
Test: NAD+ reduction at […] nm
Format: biochemical, Thermococcus litoralis
Conditions: NAD+ 1.5 mM, Bis-tris propane pH 10.5, 50 °C
ENDPOINT: Km (µM)

COMPOUND	TARGET_OR_TEST_SYSTEM	ENDPOINT	EXPERIMENTAL_RESULT
CC[C@H](N)C(=O)O [L-2-Aminobutyrate]	TlLhpI	Km	6000
C[C@H](N)C(=O)O	TlLhpI	Km	18200
CC(C)C[C@H](N)C(=O)O	TlLhpI	Km	1320

A: CCC[C@H](N)C(=O)O [L-2-Aminovalerate]
B: O=C(O)[C@@H]1CCCN1
Km comparison. Which is larger, A or B ? Bench note: the answer is the label of the chosen record.
B

----------
Tested on: TlLhpI
Assay: NADH oxidation at […] nm
Assay type: biochemical, Thermococcus litoralis
Details: NADH 0.15 mM, NH4Cl 700 mM, Tris-HCl pH 8.0, 50 °C
ENDPOINT: Km (µM)

Examples with their reported Km follow.
MOLECULE	ENDPOINT	EXPERIMENTAL_RESULT
CCCC(=O)C(=O)O [2-Oxovalerate]	Km	969
O=C(O)CC(=O)C(=O)O [Oxalacetate]	Km	8860
CC(=O)C(=O)O [Pyruvate]	Km	9370

a: CC(C)CC(=O)C(=O)O [4-Methyl-2-oxovalerate]
b: CCC(=O)C(=O)O [2-Oxobutyrate]
Of a versus b , which is the one with smaller reported Km? Record your answer as the label of the chosen record.
b

Where do these numbers come from? They come from paper PMC4141209.
